property: melting point

Request: Look up melting point of O=c1c2c3c(sc2nc(-c2ccco2)n1Cc1ccccc1)CCCCC3 and report it.
Result: 192 to 194 °C

Request: Let me know recorded melting point for O=c1c2c3c(sc2nc(-c2cccs2)n1Cc1ccccc1)CCCC3 , thanks.
Result: 185 to 187 °C

Request: Write down melting point measured for item O=c1c2c3c(sc2nc(-c2ccc(F)cc2)n1Cc1ccccc1)CCCCC3
Result: 146 to 148 °C

Request: Report melting point, nothing else, for this compound: O=c1c2c3c(sc2nc(-c2cccc(Cl)c2)n1CCc1ccc(O)cc1)CCCC3
Result: 238 to 240 °C

Request: Report measured melting point; entry is O=c1c2c3c(sc2nc(-c2ccc(Cl)cc2)n1Cc1ccccc1)CCCCC3
Result: 170 to 172 °C

Request: Complete the entry with melting point for O=c1c2c3c(sc2nc(-c2ccc(C(F)(F)F)c(C(F)(F)F)c2)n1Cc1ccccc1)CCCC3
Result: 161 to 163 °C

Request: Tell me measured melting point for Cc1cc(-c2nc3sc4c(c3c(=O)n2CCc2ccc(O)cc2)CCCCC4)sc1C please.
Result: 186 to 188 °C

Request: Input Cc1sc2nc(-c3ccccc3)n(CCc3ccc(O)cc3)c(=O)c2c1C , output reported melting point.
Result: 251 to 253 °C

Request: Read off the recorded melting point for Cc1sc2nc(-c3cccs3)n(Cc3ccccc3)c(=O)c2c1C
Result: 162 to 164 °C

###

# assayRemarks: MTT assay, HL-7702 cells
# Format: cell-based, human
# measurementParameters: HL-7702 cells (normal liver cells); normal human liver cells, MTT, 72 h; read-out: Cytotoxic activity (IC50) HL-7702
property: IC50 at 72 h

Request: For the compound Cc1ccc(-c2nc3sc4c(c3c(=O)n2Cc2ccccc2)CCCC4)o1 , give its measured IC50 at 72 h value.
Result: 55.2 µM

Request: Check the records and state IC50 at 72 h for O=c1c2c3c(sc2nc(-c2cccc(Cl)c2)n1Cc1ccccc1)COCC3
Result: > 100 µM

Request: Give the value of IC50 at 72 h reported for the following: Cc1ccc(-c2nc3sc4c(c3c(=O)n2CCc2ccc(O)cc2)CCOC4)cc1
Result: > 100 µM

Request: Give reported IC50 at 72 h value for O=c1c2c3c(sc2nc(-c2ccccc2)n1CCc1ccc(O)cc1)CCCCC3
Result: > 100 µM

Request: Supply IC50 at 72 h value. Item: Cc1cc(-c2nc3sc4c(c3c(=O)n2CCc2ccc(O)cc2)CCCCC4)sc1C
Result: 68.6 µM

Request: Give IC50 at 72 h for the following compound: Cc1cc(-c2nc3sc4c(c3c(=O)n2Cc2ccccc2)CCCCC4)sc1C
Result: > 100 µM

Request: Recall and state the measured IC50 at 72 h for Cc1sc2nc(-c3ccccc3)n(CCc3ccc(O)cc3)c(=O)c2c1C .
Result: > 100 µM

Request: Using known records, supply IC50 at 72 h for CC[C@@]1(O)C(=O)OCc2c1cc1n(c2=O)Cc2cc3ccccc3nc2-1 [CAMPTOTHECIN, camptothecin, reference compound]
Result: 0.11 µM

###

# System: PC-3 cells
# assayRemarks: MTT assay, PC-3 cells
# Assay type: cell-based
# measurementParameters: human prostate cancer cells, 72 h, read-out: Cytotoxic activity (IC50) PC-3
pIC50: −log10 of the molar value.
Could you please report measured pIC50 for the items listed next?

Request: Using known records, supply pIC50 for O=c1c2c3c(sc2nc(-c2ccc(F)cc2)n1Cc1ccccc1)CCCCC3 [Compound 17]
Result: < 4.00

Request: Give the value of pIC50 reported for the following: O=c1c2c3c(sc2nc(-c2cccc(Cl)c2)n1CCc1ccc(O)cc1)CCCC3 [Compound 9]
Result: < 4.00

Request: Read the entry Cc1sc2nc(-c3ccccc3)n(CCc3ccc(O)cc3)c(=O)c2c1C [Compound 22] and write its reported pIC50.
Result: < 4.00

Request: State, in one line, measured pIC50 of Cc1sc2nc(-c3cccs3)n(Cc3ccccc3)c(=O)c2c1C [Compound 20]
Result: < 4.00
